Test system: diamondback moth (Plutella xylostella)
ASSAY_EXPLANATION: Test A: control of diamondback moth on radish plant, foliar spray
Assay type: in vivo
EXPERIMENTAL_SETUP: sprayed at 50 ppm, held 6 days
EXPERIMENTAL_ENDPOINT: levels of control efficacy (20% or less feeding damage or 80% or more mortality)

Example cases with answers are listed next.
MOLECULE | REPORTED_VALUE
CSCCCNC(=O)c1ccc(C2=NOC(c3cc(Cl)cc(Cl)c3)(C(F)(F)F)C2)c2ccccc12 (stereo not shown) | very good to excellent
O=C(CNC(=O)c1ccc(C2=NOC(c3cccc(OC(F)(F)F)c3)(C(F)(F)F)C2)c2ccccc12)NCC(F)(F)F (stereo not shown) | very good to excellent
O=C(CNC(=O)c1ccc(C2=NOC(c3cc(Br)cc(C(F)(F)F)c3)(C(F)(F)F)C2)c2ccccc12)NCC(F)(F)F (racemic) | very good to excellent
CSCC(C)NC(=O)c1ccc(C2=NOC(c3cc(Cl)cc(Cl)c3)(C(F)(F)F)C2)c2ccccc12 (mixture of isomers) [Compound 29] | very good to excellent
CSCC(C)NC(=O)c1ccc(C2=NOC(c3cc(C(F)(F)F)cc(C(F)(F)F)c3)(C(F)(F)F)C2)c2ccccc12 (mixture of isomers) [Compound 59] | very good to excellent
O=C(CCNC(=O)c1ccc(C2=NOC(c3cc(Cl)cc(Cl)c3)(C(F)(F)F)C2)c2ccccc12)NCC(F)(F)F (stereo not shown) | very good to excellent

Look at this molecule and give its reported levels of control efficacy (20% or less feeding damage or 80% or more mortality). CC(C)(C)NC(=O)CNC(=O)c1ccc(C2=NOC(c3cc(Cl)cc(Cl)c3)(C(F)(F)F)C2)c2ccccc12 (stereo not shown)
very good to excellent
